biological target: biotinylated SARS-CoV-2 S1 variant B.1.351 (Example 5) (SARS-CoV-2) (UniProt P0DTC2); test: phage ELISA screening
I'd appreciate it if you could supply ELISA values for the items below.
One number for each entry.

Some entries whose results are on file:
12-24 (antibody, V domains shown) VH: QVQLVESGGGVVQPGRSLRLSCAASGFTFSNFPMHWVRQAPGKGLEWVAVISYDGNNKYYADSVKGRFTISRDNSKNTLYLQMNSLRAEDTAVYYCAKDHGDHYFDYWGQGTLVTVSS VL: EIVLTQSPATLSLSPGERATLSCRASQSFGDSLAWYQQKPGQAPRLLIYDASNRATGIPARFSGSGSGTDFTLTISSLEPEDFAVYYCQQRSIPITFGGGTKVEIK
9.63
11-3 (antibody, V domains shown) VH: QVQLVESGGGVVQPGRSLRLSCAASGFTFSNFAMHWVRQAPGKGLEWVAVISYDGNHEYYADSVKGRFTISRDNSKNTLYLQMNSLRAEDTAVYYCAKTNSGSYGGMFDYWGQGTLVTVSS VL: EIVLTQSPATLSLSPGERATLSCRASQNIGNHLAWYQQKPGQAPRLLIYDASNRATGIPARFSGSGSGTDFTLTISSLEPEDFAVYYCQQRDNGPPEGTFGGGTKVEIK
17.3
12-26 (antibody, V domains shown) VH: QVQLVESGGGVVQPGRSLRLSCAASGFTFSNYAMHWVRQAPGKGLEWVAVISYDGSNEYYADSEKGRFTISRDNSKNTLYLQMNSLRAEDTAVYYCAKSGSGSYFSPFDYWGQGTLVTVSS VL: EIVLTQSPATLSLSPGERATLSCRASQSVSTSLAWYQQKPGQAPRLLIYDISNRATGIPARFSGSGSGTDFTLTISSLEPEDFAVYYCQQRRSGLTFGGGTKVEIK
9.05
11-15 (antibody, V domains shown) VH: QVQLVESGGGVVQPGRSLRLSCAASGFIFSNYGMHWVRQAPGKGLEWVAVISYDGSDKYYADSVKGRFTISRDNSKNTLYLQMNSLRAEDTAVYYCARDDYMYGFEHWGQGTLVTVSS VL: EMVVPQSPPTVSLSPGERATLSCRASQSVGSYLAWYQQKPGQAPRLLIYDAVNRATGIPARFSGSGSGTDFTLTISSLEPEDFAVYYCQQRSDSITFGGGTKVEIK
4.97

Q: Specify ELISA for 12-9 (antibody, V domains shown) VH: QVQLVESGGGVVQPGRSLRLSCAASGFTFSSYGMHWVRQAPGKGLEWVAVISYDGTTEYYADSVKGRFTISRDNSKNTLYLQMNSLRAEDTAVYYCARPSSGSYLGFFDYWGQGTLVTVSS VL: EIVLTQSPATLSLSPGERATLSCRASQSVSTSLAWYQQKPGQAPRLLIYDATNRATGIPARFSGSGSGTDFTLTISSLEPEDFAVYYCQRRTDWPPTFGGGTKVEIK and stop.
A: 19.9
